Provenance of the data: patent US10294256B2

Item-by-item account of pIC50
target: recombinant human His-tagged Tyk2 pseudokinase domain (His-TVMV-Tyk2, 575-869) (Homo sapiens); test: Probe Displacement Assay (HTRF Format); settings: 0.5 nM Tyk2 pseudokinase domain, 1 h room temperature, read-out: Binding IC50
Sequence (P29597 with tags, fused parts or gaps): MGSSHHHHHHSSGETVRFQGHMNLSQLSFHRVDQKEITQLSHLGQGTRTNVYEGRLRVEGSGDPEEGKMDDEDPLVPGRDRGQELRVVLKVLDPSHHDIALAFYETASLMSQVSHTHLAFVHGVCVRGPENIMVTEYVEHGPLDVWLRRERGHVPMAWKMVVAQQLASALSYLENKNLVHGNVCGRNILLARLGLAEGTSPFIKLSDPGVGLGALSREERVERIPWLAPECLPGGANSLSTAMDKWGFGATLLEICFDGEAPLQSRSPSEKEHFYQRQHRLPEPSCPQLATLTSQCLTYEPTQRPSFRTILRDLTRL
Note on pIC50: it is the negative log10 of concentration, concentration in mol/L.

1. [2H]C([2H])([2H])NC(=O)c1nnc(Nc2ccc(N3CCOCC3)cn2)cc1Nc1ccccc1P(C)(C)=O [Example 7]; 7.89
2. [2H]C([2H])([2H])NC(=O)c1nnc(Nc2cc(C3CC3)ccn2)cc1Nc1ncccc1P(C)(C)=O [Example 12]; 9.13
3. [2H]C([2H])([2H])NC(=O)c1nnc(Nc2cc(C3CC3)ccn2)cc1Nc1ccccc1P(C)(C)=O [Example 1]; 8.47

Form: compound = [2H]C([2H])([2H])NC(=O)c1nnc(Nc2cccc(F)n2)cc1Nc1ncccc1P(C)(C)=O [Example 22] ; pIC50 = 10.43

Form: compound = [2H]C([2H])([2H])NC(=O)c1nnc(NC(=O)C2CC2)cc1Nc1ccccc1P(C)(C)=O [Example 2] ; pIC50 = 8.13

---

target: recombinant human His-tagged Tyk2 pseudokinase domain (His-TVMV-Tyk2, 575-869) (Homo sapiens); assay: Probe Displacement Assay (HTRF Format); conditions: 0.5 nM Tyk2 pseudokinase domain, 1 h room temperature, read-out: Binding IC50
Item-by-item account of pIC50
Note on pIC50: it is the negative log10 of concentration, concentration in mol/L.

Consider the following illustrative entries.
1. [2H]C([2H])([2H])NC(=O)c1nnc(Nc2cc(F)ccn2)cc1Nc1ncccc1P(C)(C)=O [Example 25]; 9.24
2. [2H]C([2H])([2H])NC(=O)c1nnc(NC(=O)OCC)cc1Nc1ncccc1P(C)(C)=O [Example 19]; 8.01
3. [2H]C([2H])([2H])NC(=O)c1nnc(Nc2ccc(C(O)(C(F)(F)F)C(F)(F)F)cn2)cc1Nc1ncccc1P(C)(C)=O [Example 41]; 9.04
4. [2H]C([2H])([2H])NC(=O)c1nnc(Nc2ccc(C(C)(C)O)cn2)cc1Nc1ncccc1P(C)(C)=O [Example 16]; 9.54
5. [2H]C([2H])([2H])NC(=O)c1nnc(NC(=O)[C@H]2CC2(C)C)cc1Nc1ncccc1P(C)(C)=O [Example 27]; 7.89

Pending compound:
Form: compound = [2H]C([2H])([2H])NC(=O)c1nnc(Nc2ccn(C)n2)cc1Nc1ncccc1P(C)(C)=O [Example 23] ; pIC50 = 8.70
